test: Half life in mouse liver microsomes; type: ADME, Microsome
Each entry below lists one item and its recorded half-life value.

>  <Input Smiles>
O=C(NCc1cn(-c2cc(Cl)ccn2)nn1)c1cnc(-c2cccc(NS(=O)(=O)C3CC3)c2)s1

>  <half-life>
> 2 h

$$$$
>  <Input Smiles>
CS(=O)(=O)c1ccc(-c2ncc(C(=O)NCc3cn(-c4cc(Cl)ccn4)nn3)s2)cc1

>  <half-life>
> 2 h

$$$$
>  <Input Smiles>
CS(=O)(=O)Nc1cccc(-c2ccc(Cl)c(C(=O)NCc3cn(-c4cc(Cl)ccn4)nn3)c2)c1

>  <half-life>
1.39 h

$$$$

* * *

test: Cmax in BALB/c mouse at 10 mg/kg, iv measured for 24 hrs by LC-MS/MS analysis; assay type: ADME, organism-based; parameters: time 24 hrs, dose 10 mg/kg, route iv; settings: in vivo

>  <Input Smiles>
CS(=O)(=O)c1ccc(-c2ncc(C(=O)NCc3cn(-c4cc(Cl)ccn4)nn3)s2)cc1

>  <Unit>
ng/mL

>  <Cmax>
25800

$$$$
>  <Input Smiles>
O=C(NCC1(N2CCN(c3ccccc3)CC2)CCOCC1)c1cccnc1Sc1ccccc1

>  <Unit>
ng/mL

>  <Cmax>
516

$$$$
>  <Input Smiles>
CS(=O)(=O)c1ccc(-c2ncc(C(=O)NCc3cn(-c4cc(Br)ccn4)nn3)s2)cc1

>  <Unit>
ng/mL

>  <Cmax>
3410

$$$$
>  <Input Smiles>
CS(=O)(=O)c1ccc(-c2nc(C(=O)NCc3cn(-c4cc(Cl)ccn4)nn3)cs2)cc1

>  <Unit>
ng/mL

>  <Cmax>
3040

$$$$
>  <Input Smiles>
CS(=O)(=O)c1ccc(-c2nc(C(=O)NCc3cn(-c4cc(Br)ccn4)nn3)cs2)cc1

>  <Unit>
ng/mL

>  <Cmax>
4730

$$$$

* * *

Biological target: P2X purinoceptor 7 (Mus musculus)
Sequence (whole entry): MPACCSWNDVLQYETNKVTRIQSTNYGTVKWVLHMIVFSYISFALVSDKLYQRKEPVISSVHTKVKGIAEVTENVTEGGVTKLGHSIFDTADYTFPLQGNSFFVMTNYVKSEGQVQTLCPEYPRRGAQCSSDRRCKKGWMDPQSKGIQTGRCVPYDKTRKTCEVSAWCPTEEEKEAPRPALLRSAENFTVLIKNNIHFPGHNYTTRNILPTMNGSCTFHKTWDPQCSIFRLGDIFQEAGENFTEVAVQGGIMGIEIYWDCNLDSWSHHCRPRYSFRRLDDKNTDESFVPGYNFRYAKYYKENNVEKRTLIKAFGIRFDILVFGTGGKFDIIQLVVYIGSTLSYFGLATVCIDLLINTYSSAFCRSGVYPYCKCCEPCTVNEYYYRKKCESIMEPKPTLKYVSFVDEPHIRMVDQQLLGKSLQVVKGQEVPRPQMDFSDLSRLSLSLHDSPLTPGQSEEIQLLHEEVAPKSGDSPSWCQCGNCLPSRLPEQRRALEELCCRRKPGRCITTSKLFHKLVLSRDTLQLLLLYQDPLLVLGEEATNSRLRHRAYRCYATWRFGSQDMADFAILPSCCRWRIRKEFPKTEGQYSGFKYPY
Test: Antagonist activity at mouse P2X7 receptor expressed in HEK293 cells assessed as inhibition of ATP-induced receptor pore formation at 200 nM by propidium iodide dye uptake based fluorescence analysis
Format: cell-based
Conditions: filed as antagonist
The reader will find reported inhibition values listed item by item below.

>  <Input Smiles>
CS(=O)(=O)c1ccc(-c2ncc(C(=O)NCc3cn(-c4cc(Br)ccn4)nn3)s2)cc1

>  <inhibition (%)>
114

$$$$
>  <Input Smiles>
O=C(NCc1cn(-c2cc(Cl)ccn2)nn1)c1cnc(-c2ccc(NS(=O)(=O)N3CCOCC3)cc2)s1

>  <inhibition (%)>
54.3

$$$$
>  <Input Smiles>
CS(=O)(=O)c1ccc(-c2ncc(C(=O)NCc3cn(-c4cc(F)ccn4)nn3)s2)cc1

>  <inhibition (%)>
68.4

$$$$
>  <Input Smiles>
CS(=O)(=O)c1ccc(-c2csc(C(=O)NCc3cn(-c4cc(Cl)ccn4)nn3)n2)cc1

>  <inhibition (%)>
55.2

$$$$
>  <Input Smiles>
Nc1ccc(-c2ncc(C(=O)NCc3cn(-c4cc(Cl)ccn4)nn3)s2)cc1

>  <inhibition (%)>
51.7

$$$$
>  <Input Smiles>
O=C(NCc1cn(-c2cc(Cl)ccn2)nn1)c1cc(-c2cccc3ncccc23)ccc1Cl

>  <inhibition (%)>
66.7

$$$$
>  <Input Smiles>
CS(=O)(=O)Nc1ccc(-c2ncc(C(=O)NCc3cn(-c4cc(Cl)ccn4)nn3)s2)cc1

>  <inhibition (%)>
71.6

$$$$
>  <Input Smiles>
CS(=O)(=O)c1ccc(-c2ncc(C(=O)NCc3cn(-c4cc(Cl)ccn4)nn3)s2)cc1

>  <inhibition (%)>
101

$$$$
>  <Input Smiles>
CS(=O)(=O)c1ccc(-c2nc(C(=O)NCc3cn(-c4cc(Cl)ccn4)nn3)cs2)cc1

>  <inhibition (%)>
105

$$$$

* * *

Molecular target: P2X purinoceptor 7 (Mus musculus) (UniProt Q9Z1M0)
Sequence (whole entry): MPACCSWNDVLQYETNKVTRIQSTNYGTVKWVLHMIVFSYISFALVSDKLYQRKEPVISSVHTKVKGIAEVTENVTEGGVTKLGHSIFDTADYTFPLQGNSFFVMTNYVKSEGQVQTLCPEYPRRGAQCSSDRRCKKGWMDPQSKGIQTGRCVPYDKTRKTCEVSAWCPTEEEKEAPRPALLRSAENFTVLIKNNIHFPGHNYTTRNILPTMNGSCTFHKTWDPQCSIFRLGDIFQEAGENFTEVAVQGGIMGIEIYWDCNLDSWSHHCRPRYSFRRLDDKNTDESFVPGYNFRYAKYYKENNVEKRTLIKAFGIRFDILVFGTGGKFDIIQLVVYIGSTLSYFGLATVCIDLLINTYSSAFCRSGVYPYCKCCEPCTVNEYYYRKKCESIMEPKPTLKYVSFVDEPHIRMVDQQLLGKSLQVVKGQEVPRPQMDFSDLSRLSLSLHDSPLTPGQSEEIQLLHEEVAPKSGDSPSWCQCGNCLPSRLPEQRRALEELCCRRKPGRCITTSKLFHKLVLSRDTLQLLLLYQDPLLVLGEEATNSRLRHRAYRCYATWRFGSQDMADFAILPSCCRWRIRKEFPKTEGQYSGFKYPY
Assay: Antagonist activity at mouse P2X7 receptor expressed in HEK293 cells assessed as inhibition of ATP-induced receptor pore formation at 1 uM by propidium iodide dye uptake based fluorescence analysis
Type: cell-based
Conditions: filed as antagonist
Measured Attribute: inhibition (%)

>  <Input Smiles>
CS(=O)(=O)c1ccc(-c2ncc(C(=O)NCc3cn(-c4cc(F)ccn4)nn3)s2)cc1

>  <Target Under Test>
P2X purinoceptor 7 (Mus musculus) (UniProt Q9Z1M0)

>  <Measured Attribute>
inhibition

>  <Endpoint Value>
61.8

$$$$
>  <Input Smiles>
CS(=O)(=O)c1ccc(-c2ccc(Cl)c(C(=O)NCc3cn(-c4cc(Cl)ccn4)nn3)c2)cc1

>  <Target Under Test>
P2X purinoceptor 7 (Mus musculus) (UniProt Q9Z1M0)

>  <Measured Attribute>
inhibition

>  <Endpoint Value>
71

$$$$
>  <Input Smiles>
O=C(NCC1(N2CCN(c3ccccc3)CC2)CCOCC1)c1cccnc1Sc1ccccc1

>  <Target Under Test>
P2X purinoceptor 7 (Mus musculus) (UniProt Q9Z1M0)

>  <Measured Attribute>
inhibition

>  <Endpoint Value>
92

$$$$
>  <Input Smiles>
CS(=O)(=O)c1ccc(-c2ncc(C(=O)NCc3cn(-c4cccc(Br)n4)nn3)s2)cc1

>  <Target Under Test>
P2X purinoceptor 7 (Mus musculus) (UniProt Q9Z1M0)

>  <Measured Attribute>
inhibition

>  <Endpoint Value>
52

$$$$
>  <Input Smiles>
CS(=O)(=O)c1ccc(-c2nc(C(=O)NCc3cn(-c4cc(Cl)ccn4)nn3)cs2)cc1

>  <Target Under Test>
P2X purinoceptor 7 (Mus musculus) (UniProt Q9Z1M0)

>  <Measured Attribute>
inhibition

>  <Endpoint Value>
99.5

$$$$

* * *

Form field: CLint scaled (one value per entry).
test: Intrinsic clearance in mouse liver microsomes; type: ADME, Microsome; settings: read-out: CLH

>  <Input Smiles>
O=C(NCc1cn(-c2cc(Cl)ccn2)nn1)c1cnc(-c2cccc(NS(=O)(=O)C3CC3)c2)s1

>  <CLint scaled>
< 12 mL/min/kg

$$$$
>  <Input Smiles>
CS(=O)(=O)c1ccc(-c2nc(C(=O)NCc3cn(-c4cc(Br)ccn4)nn3)cs2)cc1

>  <CLint scaled>
< 12 mL/min/kg

$$$$
>  <Input Smiles>
COc1ccc(-c2ccc(Cl)c(C(=O)NCc3cn(-c4cc(Cl)ccn4)nn3)c2)cc1OC

>  <CLint scaled>
216 mL/min/kg

$$$$
>  <Input Smiles>
CS(=O)(=O)Nc1ccc(-c2ncc(C(=O)NCc3cn(-c4cc(Cl)ccn4)nn3)s2)cc1

>  <CLint scaled>
< 12 mL/min/kg

$$$$
>  <Input Smiles>
CC(C)S(=O)(=O)c1ccc(-c2ncc(C(=O)NCc3cn(-c4cc(Cl)ccn4)nn3)s2)cc1

>  <CLint scaled>
66.2 mL/min/kg

$$$$
>  <Input Smiles>
CS(=O)(=O)c1ccc(-c2nc(C(=O)NCc3cn(-c4cc(Cl)ccn4)nn3)cs2)cc1

>  <CLint scaled>
< 12 mL/min/kg

$$$$
>  <Input Smiles>
CS(=O)(=O)c1ccc(-c2ncc(C(=O)NCc3cn(-c4cc(Cl)ccn4)nn3)s2)cc1

>  <CLint scaled>
< 12 mL/min/kg

$$$$
>  <Input Smiles>
O=C(NCC1(N2CCN(c3ccccc3)CC2)CCOCC1)c1cccnc1Sc1ccccc1

>  <CLint scaled>
88.2 mL/min/kg

$$$$
>  <Input Smiles>
O=C(NCc1cn(-c2cc(Cl)ccn2)nn1)c1cnc(-c2cccc(NS(=O)(=O)N3CCOCC3)c2)s1

>  <CLint scaled>
215 mL/min/kg

$$$$
>  <Input Smiles>
O=C(NCc1cn(-c2cc(Cl)ccn2)nn1)c1cnc(-c2ccc(NS(=O)(=O)N3CCOCC3)cc2)s1

>  <CLint scaled>
154 mL/min/kg

$$$$
>  <Input Smiles>
CS(=O)(=O)Nc1cccc(-c2ccc(Cl)c(C(=O)NCc3cn(-c4cc(Cl)ccn4)nn3)c2)c1

>  <CLint scaled>
65.4 mL/min/kg

$$$$
>  <Input Smiles>
CS(=O)(=O)c1ccc(-c2ncc(C(=O)NCc3cn(-c4cc(Br)ccn4)nn3)s2)cc1

>  <CLint scaled>
< 12 mL/min/kg

$$$$

Origin of the recorded values: ChEMBL document CHEMBL5360655
